study_system: Soluble mouse EPOR chimera proteins (Mus musculus)
Construct: Soluble mouse EPOR chimera proteins; purchased R&D Systems
measurement_description: SPR binding affinity of erythropoietin-derived peptides to erythropoietin receptor
details: SPR, Table 11; read-out: Ka (association rate)
No end group written: not given here.
kon by entry:
// units = M⁻¹ s⁻¹; emit number, no label

// known answers, use as guide
LQLHVLKAVSGLLTHTTLLKALG [ML1-H1] = 1010
LQLHVDKAVSGLRSLTTLLRALG [ML1] = 1310
LQRHVKKRVKGLKSLTTLLRALG [ML1-C3] = 1100
LQRHVDKRVSGLRSLTTLLRALG [ML1-C2] = 1590
LQLHVLKAVSGLLTLTMIRRALG [ML1-H2] = 3430

Now let's try a different one.
[in] Field request: kon | item: LQLHVLKAVAGLRTLAMIRRALA [ML1-H3]
[out] 4160

---

study_system: Soluble mouse EPOR chimera proteins (Mus musculus, UniProt P14753)
Construct: Soluble mouse EPOR chimera proteins; purchased R&D Systems
Sequence (P14753 25-249 limits assumed): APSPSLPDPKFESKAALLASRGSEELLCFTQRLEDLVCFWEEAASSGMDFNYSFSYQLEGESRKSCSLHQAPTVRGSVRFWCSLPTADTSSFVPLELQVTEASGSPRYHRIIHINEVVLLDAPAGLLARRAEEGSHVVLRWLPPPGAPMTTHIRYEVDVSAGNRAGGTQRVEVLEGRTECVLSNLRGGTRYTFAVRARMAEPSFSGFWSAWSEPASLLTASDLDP
measurement_description: SPR binding affinity of erythropoietin-derived peptides to erythropoietin receptor
details: SPR, Table 11; read-out: Kd (dissociation rate)
No end group written: not given here.
For each record, check the reported koff: if it is below 0.008 s⁻¹ write criterion met, else write criterion not met.

LQRHVDKRVSGLRSLTTLLRALG [ML1-C2] = criterion not met
LQLHVDKAVSGLRSLTTLLRALG [ML1] = criterion not met
LQLHVLKAVSGLLTLTMIRRALG [ML1-H2] = criterion met

[in] Field: below-cutoff. Rule: recorded koff strictly less than 0.008 s⁻¹. Subject: LQRHVKKRVKGLKSLTTLLRALG [ML1-C3]
[out] criterion not met

[in] Field: below-cutoff. Rule: recorded koff strictly less than 0.008 s⁻¹. Subject: LQLHVLKAVAGLRTLAMIRRALA [ML1-H3]
[out] criterion met

---

log10 koff by entry:
study_system: Soluble mouse EPOR chimera proteins (Mus musculus, UniProt P14753)
Construct: Soluble mouse EPOR chimera proteins; purchased R&D Systems
Sequence (P14753 25-249 limits assumed): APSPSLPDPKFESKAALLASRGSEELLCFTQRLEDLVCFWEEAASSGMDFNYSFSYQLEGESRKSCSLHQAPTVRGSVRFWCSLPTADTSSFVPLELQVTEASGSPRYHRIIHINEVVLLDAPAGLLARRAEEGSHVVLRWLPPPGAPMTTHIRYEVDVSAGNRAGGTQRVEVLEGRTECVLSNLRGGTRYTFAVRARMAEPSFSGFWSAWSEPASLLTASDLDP
measurement_description: SPR binding affinity of erythropoietin-derived peptides to erythropoietin receptor
details: SPR, Table 10; read-out: Kd (dissociation rate)
No end group written: not given here.
Recall that a logarithmic scale is used here: each number is log10 of koff in s⁻¹.

// known answers, use as guide
TRVNYQAWKR [ML3-1] = -1.89
KGLRSLISLLRALGAQKEAI [ML6-1] = -1.52
DKAVSGLRSLTTLLRAL [ML8] = -1.10

[in] Field request: log10 koff | item: LQLHVLKRVSGLLSHTMLLKALG [ML1-1]
[out] -2.23

[in] Field request: log10 koff | item: TKVNFYAWKR [ML3]
[out] -2.52

[in] Field request: log10 koff | item: DKAVSGLRSLTTLLRALGAQKEAI [ML4]
[out] -2.66

[in] Field request: log10 koff | item: DEALDLEVDKAATGLRTLTTLIRAL [ML7-1]
[out] -1.84

[in] Field request: log10 koff | item: SGLRSLTTLLRALG [ML5]
[out] -4.00

[in] Field request: log10 koff | item: LQLHVDKAVSGLRSLTTLLRALG [ML1]
[out] -2.07

---

study_system: Soluble mouse EPOR chimera proteins (Mus musculus, UniProt P14753)
Construct: Soluble mouse EPOR chimera proteins; purchased R&D Systems
measurement_description: SPR binding affinity of erythropoietin-derived peptides to erythropoietin receptor
details: SPR, Table 10; read-out: Ka (association rate)
Method: The SPR technique is to measure interactions between biomolecules in real-time by using an optical principle without specific labeling, and is a system analyzing affinity between two molecules and kinetics, i.e., an association rate (Ka) and a dissociation rate (Kd). In detail, real-time SPR analysis was performed using Reichert SPR Biosensor SR 7500C instrument (Reichert Inc., NY, USA). […]
No end group written: not given here.
kon by entry:
// units = M⁻¹ s⁻¹; emit number, no label

// known answers, use as guide
DEALDLEVDKAATGLRTLTTLIRAL [ML7-1] = 226
AGLRSRAHLRRALA [ML5-1] = 442
DKAVSGLRSLTTLLRAL [ML8] = 180
TRVNYQAWKR [ML3-1] = 3080
TKVNFYAWKR [ML3] = 205
SGLRSLTTLLRALG [ML5] = 304

[in] Field request: kon | item: LQLHVDKAVSGLRSLTTLLRALG [ML1]
[out] 1310

[in] Field request: kon | item: LQLHVLKRVSGLLSHTMLLKALG [ML1-1]
[out] 5550

[in] Field request: kon | item: RHVQKAESGLRSLTKLLREL [ML2-1]
[out] 310

[in] Field request: kon | item: DKAVSGLRSLTTLLRALGAQKEAI [ML4]
[out] 220

[in] Field request: kon | item: KGLRSLISLLRALGAQKEAI [ML6-1]
[out] 190

[in] Field request: kon | item: KKAVSGLKTLTHILRALGAQKEAI [ML4-1]
[out] 410

---

study_system: Soluble mouse EPOR chimera proteins (Mus musculus)
Construct: Soluble mouse EPOR chimera proteins; purchased R&D Systems
measurement_description: SPR binding affinity of erythropoietin-derived peptides to erythropoietin receptor
details: SPR, Table 10; read-out: Kd (dissociation rate)
No end group written: not given here.
quantity: koff (s⁻¹)
// units = s⁻¹; emit number, no label

// known answers, use as guide
AGLRSRAHLRRALA [ML5-1] = 0.0346
NKAVAGLRSLTVN [ML8-1] = 0.15

[in] Field request: koff | item: LHVDKAVSGLRSLTTLLRAL [ML2]
[out] 0.0044

[in] Field request: koff | item: RHVQKAESGLRSLTKLLREL [ML2-1]
[out] 0.0041
